Where do these numbers come from? They come from the PETadex activity labels (doi:10.1016/j.ijbiomac.2025.149745).

assay_name: Proxy for plastic degradation [melting temperature]
condition_context: pH 7
Listing: Proxy for plastic degradation of selected proteins
Your answer should be a plain number; it is taken to be in °C.

Guide cases for Proxy for plastic degradation, answers given:
1. unnamed (protein) MDGVLWRVRTAALMAALLALAAWALWASPSVEAQSNPYQRGPNPTRSALTADGPFSVATYTVSRLSVSGFGGVIYYPTGTSLTFGGIAMSPGYTADASSLAWLGRRLASHGFVVLVINTNSRFDYPDSRASQLSAALNYLRTSSPSAVRARLDANRLAVAGWSMGGGGTLRIAEQNPSLKAAVPLTPWHTDKTFNTSVPVLIVGAEADTVAPVSQHAIPFYQNLPSTTPKVYVELDNASHSAPNSNNAAISVYTISWMKLWVDNDTRYRQFLCNVNDPALSDFRTNNRHCQCQ
84.5
2. unnamed (protein) MNFPRASRLMQAAVLGGLMAVSAAATAQTNPYARGPNPTAASLEASAGPFTVRSFTVSRPSGYGAGTVYYPTNAGGTVGAIAIVPGYTARQSSIKWWGPRLASHGFVVITIDTNSTLDQPSSRSSQQMAALRQVASLNGTSSSPIYGKVDTARMGVMGWSMGGGGSLISAANNPSLKAAAPQAPWDSSTNFSSVTVPTLIFACENDSIAPVNSSALPIYDSMSRNAKQFLEINGGSHFCANSGNSNQALIGKKGVAWMKRFMDNDTRYSTFACENPNSTRVSDFRTANCS
48.5

Attention now shifts to the item below.
Request: Quick check: Proxy for plastic degradation of unnamed (protein) MDGVLWRVRTAALMAALLALAAWALWASPSVEAQSNPYQRGPNPTRSALTADGPFSVATYTVSRLSVSGFGGVIYYPTGTSLTFGGIAMSPGYTADASSLAWLGRRLASHGFVVLVINTNSRFDYPDSRASQLSAALNYLRTSSPSAVRARLDANRLAVAGHSMGGGGTLRIAEQNPSLKAAVPLTPWHTDKTFNTSVPVLIVGCEADTVAPVSQHAIPFYQNLPSTTPKVYVELDNASHFCPNSNNAAISVYTISWMKLWVDNDTRYRQFLCNVNDPALSDFRTNNRHCQCQ ?
Result: 82
